- assay_explanation: ATG_BRE_CIS: Attagene CIS-FACTORIAL HepG2 Assay for human Bone Morphogenetic Protein (BMP) Response Element (BRE) (AID 2282933)
- details: HepG2 BMP response element reporter, Attagene transcription factor profiling; actives raise or lower the signal
The source made the active and inactive calls. How the source made its calls: active means hit-call score of the fitted dose curve at least 0.9, where 1 is the maximum; inactive means score below 0.9.
Labels: active, inactive

N#Cc1c(Cl)c(Cl)c(Cl)c(C#N)c1Cl; inactive
CCC(C)(C)C(=O)OC1=C(c2ccc(Cl)cc2Cl)C(=O)OC12CCCCC2; inactive
Cc1[nH]c(=O)n(C(C)(C)C)c(=O)c1Cl; active
C[C@H]1[C@H](c2ccc(Cl)cc2)SC(=O)N1C(=O)NC1CCCCC1; active
COP(=S)(OC)Oc1ccc(SC)c(C)c1; inactive
Clc1ccccc1-c1nnc(-c2ccccc2Cl)nn1; inactive
COP(=O)(OC)OC=C(Cl)Cl; inactive
CCS(=O)(=O)c1cccnc1S(=O)(=O)NC(=O)Nc1nc(OC)cc(OC)n1; inactive
CCOC1Oc2ccc(OS(C)(=O)=O)cc2C1(C)C (configuration not stated); active
CCOc1nc(NC)nc(NC(=O)NS(=O)(=O)c2ccccc2C(=O)OC)n1; inactive
O=S1OCC2C(CO1)C1(Cl)C(Cl)=C(Cl)C2(Cl)C1(Cl)Cl (configuration not stated); inactive
CNC(=O)CSP(=S)(OC)OC; inactive
Cc1cc(C)nc(NC(=O)NS(=O)(=O)c2ccccc2C(=O)OC2COC2)n1; active
N#CN; inactive
O=C1c2ccccc2C(=O)N1SC(Cl)(Cl)Cl; inactive
CNC(=O)Oc1cccc(N=CN(C)C)c1; active
COc1nn(CSP(=S)(OC)OC)c(=O)s1; inactive
CC1(C)C(C=C(Cl)Cl)C1C(=O)OC(C#N)c1ccc(F)c(Oc2ccccc2)c1 (configuration not stated); inactive
O=C(O)CCCOc1ccc(Cl)cc1Cl; inactive
COP(=S)(OC)Oc1ccc([N+](=O)[O-])cc1; inactive
CC1(c2ccc(Oc3ccccc3)cc2)OC(=O)N(Nc2ccccc2)C1=O (configuration not stated); active
CC[C@H](C)[C@H]1O[C@]2(C=C[C@@H]1C)C[C@@H]1C[C@@H](C/C=C(\C)[C@@H](O[C@H]3C[C@H](OC)[C@@H](O[C@H]4C[C@H](OC)[C@@H](O)[C@H](C)O4)[C@H](C)O3)[C@@H](C)/C=C/C=C3\CO[C@@H]4[C@H](O)C(C)=C[C@@H](C(=O)O1)[C@]34O)O2 (tested in a mixture with another compound); inactive
